test system: PHOX2B; assay: 3' UTR reporter interaction score (median-centred robust z-score of log2 firefly/Renilla activity); higher = less repression of the 3' UTR reporter; conditions: HEK293T; 48 h
Think of -0.3 as a floor: if 3' UTR reporter interaction score stands on it or above, it is TRUE; beneath it, FALSE.

chain sequence: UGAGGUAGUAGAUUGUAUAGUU
classification: TRUE

chain sequence: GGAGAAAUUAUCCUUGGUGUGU
classification: TRUE

chain sequence: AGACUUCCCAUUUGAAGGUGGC
classification: TRUE

chain sequence: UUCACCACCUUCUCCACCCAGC
classification: TRUE

chain sequence: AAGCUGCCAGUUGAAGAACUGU
classification: TRUE

chain sequence: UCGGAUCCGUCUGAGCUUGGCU
classification: FALSE

chain sequence: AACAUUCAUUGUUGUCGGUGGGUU
classification: TRUE

chain sequence: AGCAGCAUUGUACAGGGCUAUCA
classification: FALSE

chain sequence: UCUACAGUGCACGUGUCU
classification: TRUE

chain sequence: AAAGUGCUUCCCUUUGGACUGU
classification: TRUE

chain sequence: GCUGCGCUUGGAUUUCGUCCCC
classification: FALSE

chain sequence: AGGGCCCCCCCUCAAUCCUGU
classification: TRUE

chain sequence: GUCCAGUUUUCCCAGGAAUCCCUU
classification: FALSE

chain sequence: AAGCAGCUGCCUCUGAGGC
classification: TRUE

chain sequence: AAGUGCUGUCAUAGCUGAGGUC
classification: TRUE

chain sequence: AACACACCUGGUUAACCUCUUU
classification: TRUE

chain sequence: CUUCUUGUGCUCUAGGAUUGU
classification: FALSE

chain sequence: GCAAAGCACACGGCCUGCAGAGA
classification: FALSE

chain sequence: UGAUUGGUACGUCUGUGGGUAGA
classification: FALSE

chain sequence: UAGUGCAAUAUUGCUUAUAGGGUUU
classification: TRUE

chain sequence: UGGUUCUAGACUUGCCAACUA
classification: FALSE

chain sequence: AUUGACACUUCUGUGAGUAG
classification: FALSE

chain sequence: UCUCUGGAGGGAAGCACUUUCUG
classification: FALSE

chain sequence: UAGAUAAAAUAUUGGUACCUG
classification: FALSE

chain sequence: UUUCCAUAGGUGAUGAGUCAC
classification: FALSE

====

tested on: PHF6; test: 3' UTR reporter interaction score (median-centred robust z-score of log2 firefly/Renilla activity); higher = less repression of the 3' UTR reporter; conditions: HEK293T; 48 h
Measured 3' UTR reporter interaction score accompanies every entry in the list below.

chain sequence: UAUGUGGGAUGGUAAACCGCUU
target entity: PHF6
3' UTR reporter interaction score: -0.864

chain sequence: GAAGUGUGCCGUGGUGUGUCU
target entity: PHF6
3' UTR reporter interaction score: -0.942

chain sequence: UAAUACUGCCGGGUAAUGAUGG
target entity: PHF6
3' UTR reporter interaction score: 0.321

chain sequence: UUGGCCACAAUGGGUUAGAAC
target entity: PHF6
3' UTR reporter interaction score: 1.18

chain sequence: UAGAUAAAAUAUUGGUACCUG
target entity: PHF6
3' UTR reporter interaction score: -0.242

chain sequence: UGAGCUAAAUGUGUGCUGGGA
target entity: PHF6
3' UTR reporter interaction score: -0.0551

chain sequence: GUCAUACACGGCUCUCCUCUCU
target entity: PHF6
3' UTR reporter interaction score: -2.04

chain sequence: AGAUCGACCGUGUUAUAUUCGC
target entity: PHF6
3' UTR reporter interaction score: 0.689

chain sequence: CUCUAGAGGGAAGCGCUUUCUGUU
target entity: PHF6
3' UTR reporter interaction score: -0.0745

chain sequence: UGUAAACAUCCUUGACUGGA
target entity: PHF6
3' UTR reporter interaction score: -0.821

chain sequence: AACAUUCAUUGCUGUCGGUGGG
target entity: PHF6
3' UTR reporter interaction score: 0.159

chain sequence: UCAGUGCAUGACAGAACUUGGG
target entity: PHF6
3' UTR reporter interaction score: 1.76

chain sequence: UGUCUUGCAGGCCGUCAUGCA
target entity: PHF6
3' UTR reporter interaction score: -0.169

chain sequence: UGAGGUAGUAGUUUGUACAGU
target entity: PHF6
3' UTR reporter interaction score: -0.221

chain sequence: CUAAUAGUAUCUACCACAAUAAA
target entity: PHF6
3' UTR reporter interaction score: -0.303

chain sequence: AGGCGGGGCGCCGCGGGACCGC
target entity: PHF6
3' UTR reporter interaction score: 1.42

chain sequence: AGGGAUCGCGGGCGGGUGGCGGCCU
target entity: PHF6
3' UTR reporter interaction score: 2.46

chain sequence: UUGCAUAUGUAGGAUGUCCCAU
target entity: PHF6
3' UTR reporter interaction score: -1.76

chain sequence: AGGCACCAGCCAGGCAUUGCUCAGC
target entity: PHF6
3' UTR reporter interaction score: 0.574

chain sequence: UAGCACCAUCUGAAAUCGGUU
target entity: PHF6
3' UTR reporter interaction score: -0.0911

chain sequence: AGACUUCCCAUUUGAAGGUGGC
target entity: PHF6
3' UTR reporter interaction score: 1.01

chain sequence: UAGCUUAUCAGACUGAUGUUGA
target entity: PHF6
3' UTR reporter interaction score: 0.231

chain sequence: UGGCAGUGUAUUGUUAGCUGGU
target entity: PHF6
3' UTR reporter interaction score: -3.24

chain sequence: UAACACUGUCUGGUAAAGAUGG
target entity: PHF6
3' UTR reporter interaction score: -1.93

chain sequence: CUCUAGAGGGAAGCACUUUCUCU
target entity: PHF6
3' UTR reporter interaction score: -0.193

chain sequence: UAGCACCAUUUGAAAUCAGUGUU
target entity: PHF6
3' UTR reporter interaction score: 0.425

chain sequence: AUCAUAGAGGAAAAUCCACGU
target entity: PHF6
3' UTR reporter interaction score: 0.424

chain sequence: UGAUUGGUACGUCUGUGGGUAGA
target entity: PHF6
3' UTR reporter interaction score: -0.0836

chain sequence: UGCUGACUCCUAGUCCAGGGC
target entity: PHF6
3' UTR reporter interaction score: 1.06

chain sequence: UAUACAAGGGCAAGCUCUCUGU
target entity: PHF6
3' UTR reporter interaction score: 0.0525

chain sequence: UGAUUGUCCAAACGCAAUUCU
target entity: PHF6
3' UTR reporter interaction score: 1.16

chain sequence: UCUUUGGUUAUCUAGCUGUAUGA
target entity: PHF6
3' UTR reporter interaction score: 0.471

chain sequence: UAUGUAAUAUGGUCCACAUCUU
target entity: PHF6
3' UTR reporter interaction score: -0.945

chain sequence: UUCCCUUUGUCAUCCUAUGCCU
target entity: PHF6
3' UTR reporter interaction score: 2.55

chain sequence: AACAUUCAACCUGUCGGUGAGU
target entity: PHF6
3' UTR reporter interaction score: 0.226

chain sequence: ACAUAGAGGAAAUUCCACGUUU
target entity: PHF6
3' UTR reporter interaction score: 1.27

chain sequence: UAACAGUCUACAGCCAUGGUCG
target entity: PHF6
3' UTR reporter interaction score: -0.351

chain sequence: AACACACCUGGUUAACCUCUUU
target entity: PHF6
3' UTR reporter interaction score: -2.01

chain sequence: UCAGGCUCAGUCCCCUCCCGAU
target entity: PHF6
3' UTR reporter interaction score: 0.0613

chain sequence: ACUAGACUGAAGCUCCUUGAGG
target entity: PHF6
3' UTR reporter interaction score: -0.216

chain sequence: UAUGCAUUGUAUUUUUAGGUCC
target entity: PHF6
3' UTR reporter interaction score: -1.28

chain sequence: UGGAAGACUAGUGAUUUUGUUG
target entity: PHF6
3' UTR reporter interaction score: 0.207

chain sequence: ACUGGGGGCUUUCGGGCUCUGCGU
target entity: PHF6
3' UTR reporter interaction score: 2.06

chain sequence: AGGCACGGUGUCAGCAGGC
target entity: PHF6
3' UTR reporter interaction score: 0.283

chain sequence: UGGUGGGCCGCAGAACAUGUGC
target entity: PHF6
3' UTR reporter interaction score: -0.487

chain sequence: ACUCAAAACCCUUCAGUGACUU
target entity: PHF6
3' UTR reporter interaction score: 1.5

chain sequence: GGGCGCCUGUGAUCCCAAC
target entity: PHF6
3' UTR reporter interaction score: -0.831

chain sequence: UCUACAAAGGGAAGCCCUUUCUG
target entity: PHF6
3' UTR reporter interaction score: 0.0225

chain sequence: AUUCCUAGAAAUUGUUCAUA
target entity: PHF6
3' UTR reporter interaction score: 0.216

chain sequence: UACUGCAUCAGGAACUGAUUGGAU
target entity: PHF6
3' UTR reporter interaction score: -2.18

chain sequence: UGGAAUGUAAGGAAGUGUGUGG
target entity: PHF6
3' UTR reporter interaction score: 2.43

chain sequence: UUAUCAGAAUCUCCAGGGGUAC
target entity: PHF6
3' UTR reporter interaction score: 0.08

chain sequence: AGCUGUCUGAAAAUGUCUU
target entity: PHF6
3' UTR reporter interaction score: -0.786

chain sequence: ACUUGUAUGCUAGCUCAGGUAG
target entity: PHF6
3' UTR reporter interaction score: 0.16

chain sequence: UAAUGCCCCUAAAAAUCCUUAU
target entity: PHF6
3' UTR reporter interaction score: 2.31

chain sequence: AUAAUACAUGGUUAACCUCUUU
target entity: PHF6
3' UTR reporter interaction score: -0.737

chain sequence: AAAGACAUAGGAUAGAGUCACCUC
target entity: PHF6
3' UTR reporter interaction score: -0.548

chain sequence: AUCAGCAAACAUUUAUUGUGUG
target entity: PHF6
3' UTR reporter interaction score: 1.01

chain sequence: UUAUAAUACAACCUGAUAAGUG
target entity: PHF6
3' UTR reporter interaction score: -0.286

chain sequence: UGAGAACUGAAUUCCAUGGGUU
target entity: PHF6
3' UTR reporter interaction score: 1.46

chain sequence: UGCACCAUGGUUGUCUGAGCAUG
target entity: PHF6
3' UTR reporter interaction score: 0.727
